koff by entry:
Target: T1, soluble human CTLA-4 expressed with a C-terminal myc-myc-polyhistidine tag (human)
T1 construct: soluble protein; also called hCTLA-4.mmh; hCTLA4.mmh
T1 sequence (chain, as listed by the source limits assumed): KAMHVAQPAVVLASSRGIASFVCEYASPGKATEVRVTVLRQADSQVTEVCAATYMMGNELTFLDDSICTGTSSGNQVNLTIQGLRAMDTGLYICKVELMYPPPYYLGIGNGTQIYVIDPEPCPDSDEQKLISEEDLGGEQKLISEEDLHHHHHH
Test: SPR, mAb capture, 25 C
Numeric only. Scale: s⁻¹

Recall and state the measured koff for H1H19280P (antibody, human IgG1, V domains shown) VH: QLQLQESGPGLVKPSETLSLTCIVSGGSTSSNTYYWGWIRQPPGKGLEWIGTIHYSGNPYYDPSLKSRVTISVDTSKNHFSLKLNSVTAADTAVYYCTRQYINFFDFWGQGTLVTVSS VL: EIVLTQSPATLSLSPGERVTLSCRASQSISRYLAWYQQKPGQAPRVLIYDASNRATDIPARFSGSGSGTDFTLTISSLEPEDFAVYYCQQRSNWPITFGQGTRLEIK .
0.000346

Recall and state the measured koff for H1H20375N (antibody, human IgG1, V domains shown, here with human IgG1 Fc (H1H)) VH: QLQLQESGPGLVKPSETLSFTCTVSGGSISSNYYYWGWVRQSPGKGLEWIGSIYHTGNAYDNPSLKSRVTISVDTSKNQFSLNLNSVTAADTAIYYCARHHSSSSWWYFDVWGRGTLVIVSS VL: EIVLTQSPDTLSLSPGERATLSCRASQTVSNSHLAWYQQKPGQAPRLLIYGTSSRATGIPDRFSGSGSGTDFSLTIIRLEPDDFAVYFCQQHESSPPTFGQGAKLEIK .
0.00279

Recall and state the measured koff for H1H19281P (antibody, human IgG1, V domains shown) VH: QVQLVESGGGVVQPGRSLRLSCAASGLTFSYYGMHWVRQAPGKGLEWVAVISYDGSNKYYADSVKGRFTISRDNSKNTLYLQMNSLRAEDAAVYYCAKDLGGDDYYGMDVWGQGTTVTVSS VL: EIVLTQSPGTLSLSPGERATLSCRASQSVSRTYLAWYQQKPGQAPRLLIYGAFSRATGIPDRFSGSGSGTDFTLTISRLEPEDFAVYYCQQYGSSPYTFGQGTKLEIK .
0.000741
